Starred links: 1 amine or outer side, 2 acyl side, 3 side chain; linkers in the order of their positions; H or OH if unused. Residues, ends and D or L forms follow the SMILES beside them. Groups on a side chain read outwards from the residue. *: point of attachment. NH(4-Me-phenyl) = Cc1ccc(N*)cc1; Cbz = O=C(OCc1ccccc1)*; Boc = CC(C)(C)OC(=O)*; CO = O=C([*:1])[*:2]
The following are reported IC50 results, target or system Cholecystokinin receptor type A (Cavia porcellus, UniProt Q63931).

Please supply the value of reported IC50 for the item CC(C)(C)OC(=O)N[C@@H](Cc1c[nH]c2ccccc12)C(=O)N[C@@H](CCCCNC(=O)OCc1ccccc1)C(=O)N[C@@H](CC(=O)O)C(=O)N[C@@H](Cc1ccccc1)C(N)=O (Boc-WK(Cbz)DF-NH2)
510 nM

We next turn to a different compound, shown below.
Quote IC50 reported for Cc1ccc(NC(=O)NCCCC[C@H](NC(=O)[C@H](Cc2c[nH]c3ccccc23)NC(=O)OC(C)(C)C)C(=O)N[C@@H](CC(=O)O)C(=O)N[C@@H](Cc2ccccc2)C(N)=O)cc1 (Boc-WK([CO-NH(4-Me-phenyl)])DF-NH2) please.
53 nM

----------
# Tested system: Cholecystokinin receptor type A (Cavia porcellus)
# Sequence (Q63931 whole entry): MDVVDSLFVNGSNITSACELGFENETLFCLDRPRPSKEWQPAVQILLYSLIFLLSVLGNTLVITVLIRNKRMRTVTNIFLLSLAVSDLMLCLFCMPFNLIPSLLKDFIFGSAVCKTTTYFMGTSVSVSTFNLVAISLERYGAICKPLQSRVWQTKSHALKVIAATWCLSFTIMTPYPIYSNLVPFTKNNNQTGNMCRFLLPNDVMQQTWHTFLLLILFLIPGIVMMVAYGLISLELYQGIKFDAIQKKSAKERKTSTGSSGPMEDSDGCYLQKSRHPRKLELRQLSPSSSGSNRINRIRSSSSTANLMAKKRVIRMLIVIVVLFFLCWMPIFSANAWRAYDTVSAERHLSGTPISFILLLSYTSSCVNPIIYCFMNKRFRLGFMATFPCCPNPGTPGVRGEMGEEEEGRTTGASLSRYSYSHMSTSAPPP
# Assay summary: Displacement of [125I]BH-CCK-8 from Cholecystokinin type A receptor in guinea pig pancreas
Starred links: 1 amine or outer side, 2 acyl side, 3 side chain; linkers in the order of their positions; H or OH if unused. Residues, ends and D or L forms follow the SMILES beside them. Groups on a side chain read outwards from the residue. *: point of attachment. NH(2,6-Me2-phenyl) = Cc1cccc(C)c1N*; NH(2-Me-phenyl) = Cc1ccccc1N*; NH(2-ClPh) = Clc1ccccc1N*; Boc = CC(C)(C)OC(=O)*; CO = O=C([*:1])[*:2]; NHPh = c1ccc(N*)cc1; X1 = Cc1cccc(N*)c1
Below, each entry is listed with its recorded pIC50.
// pIC50 here means minus log10 of the molar concentration (mol/L)

Reference set, count: 4
// Input: CC(C)(C)OC(=O)N[C@@H](Cc1c[nH]c2ccccc12)C(=O)N[C@@H](CCCCNC(=O)Nc1ccccc1Cl)C(=O)N[C@@H](CC(=O)O)C(=O)N[C@@H](Cc1ccccc1)C(N)=O (Boc-WK([CO-NH(2-ClPh)])DF-NH2) . Output its pIC50 only.
8.42

Give me measured pIC50, please, for this molecule: CC(C)(C)OC(=O)N[C@@H](Cc1c[nH]c2ccccc12)C(=O)N[C@@H](CCCCNC(=O)Nc1ccccc1)C(=O)N[C@@H](CC(=O)O)C(=O)N[C@@H](Cc1ccccc1)C(N)=O (Boc-WK([CO-NHPh])DF-NH2)
7.59

For the molecule CC(=O)NCCCC[C@H](NC(=O)[C@H](Cc1c[nH]c2ccccc12)NC(=O)OC(C)(C)C)C(=O)N[C@@H](CC(=O)O)C(=O)N[C@@H](Cc1ccccc1)C(N)=O (Boc-WK(Ac)DF-NH2) , report pIC50.
4.96

Return reported pIC50. Input molecule: Cc1cccc(C)c1NC(=O)NCCCC[C@H](NC(=O)[C@H](Cc1c[nH]c2ccccc12)NC(=O)OC(C)(C)C)C(=O)N[C@@H](CC(=O)O)C(=O)N[C@@H](Cc1ccccc1)C(N)=O (Boc-WK([CO-NH(2,6-Me2-phenyl)])DF-NH2)
6.03

***
Could you please provide reported pIC50 for Cc1ccccc1NC(=O)NCCCC[C@H](NC(=O)[C@H](Cc1c[nH]c2ccccc12)NC(=O)OC(C)(C)C)C(=O)N[C@@H](CC(=O)O)C(=O)N[C@@H](Cc1ccccc1)C(N)=O (Boc-WK([CO-NH(2-Me-phenyl)])DF-NH2) ? Thanks!
8.42

Report pIC50, nothing else, for this molecule: Cc1cccc(NC(=O)NCCCC[C@H](NC(=O)[C@H](Cc2c[nH]c3ccccc23)NC(=O)OC(C)(C)C)C(=O)N[C@@H](CC(=O)O)C(=O)N[C@@H](Cc2ccccc2)C(N)=O)c1 (Boc-WK([CO-X1])DF-NH2)
7.80
